Test: yeast display, Sf9 membrane polyspecificity reagent, FACS + sequencing; frameworks hold sequencing errors
Endpoint name: polyreactivity (PSR sort gate)

sequence_chain=QVQLVESGGGLVQAGGSLRLSCAASGFTFSYNTMGWYREAPGKERELVAAISRSGGRTFYADSVKGRFTISRDNAKNTVYLQMNSLKPEDTAVYYCARPWFDYWGQGTQVTVSS experimental_value="high polyreactivity"
sequence_chain=QVQLVESGGGLVQAGGSLRLSCAASGRTFKYYAMGWARQAPGKERELVATISYNGASTYYADSVKGRFTSSRDNAKNSVYLQMNSQKPEDTAVYYCAAAYLWRGRLGYWGQGTQVTVSS experimental_value="high polyreactivity"
sequence_chain=QVQLVESGGGIVQAGGSLRLSCAASGITIYKYAMGWYRQAPGKERELLAAITRGGSTYYADSVKGRFTISRDNAKNTVYLQMNSLNPEDTAVYYCNKVYHWQTPGFGYGYWGQGTQVTVSS experimental_value="high polyreactivity"
sequence_chain=QVQLVESGGGLVQAGGSLRLSCAASGIIFHPYAMGWYRQAPGKERELVAVITWPGDSTYYADSVKGRFTISRDNAKNTVYLQMNSLKPEDTAVYYCNAAVEGSLNGYEYWGQGTQVTVSS experimental_value="low polyreactivity"
sequence_chain=QVQLVESGGGLVQAGCSLRLSCAASGFIFSRYTMGWYRQAPGKERELVAAISRRGGNTYYADSVKGRFTISRDNAKNTVYLQMNSLKPEDTAVYYCADEYNQSFDYWGQGTQVTVSS experimental_value="low polyreactivity"

* * *

Experiment: yeast display, Sf9 membrane polyspecificity reagent, FACS + sequencing; frameworks hold sequencing errors
Endpoint name: polyreactivity (PSR sort gate)

sequence_chain=QVHLVESGGGLVQAGGSLRLSCAASGSTFGLNAMGWYRQAPGKERELVAAITRSDITNYADSVKGRFTISRDNAKNTVYLQMNSLKPEDTAVYYCNKTPDRHRRYFGYGYWGQGTQVTVSS endpoint_name="polyreactivity (PSR sort gate)" experimental_value="low polyreactivity"
sequence_chain=QVQLEESGGGLVQAGGRLRLSCAASGSNTRTYAMGWYRQAHGKERELVAAISSSVCRTYYADSVKGRFTISRDNEKNTVYLQMNSLKPEDTAVYYCNSRTYSYRGYNYWGQGTQVTVSS endpoint_name="polyreactivity (PSR sort gate)" experimental_value="high polyreactivity"
sequence_chain=QVQLVESGGGLVQAGGSLRLSCAASGYIFKYYAMGWYIQAPGKERELVASITSGGRTNYADSVKGRFTISRDNAKNTVYLQMNSLKPEDTAVYYCAATSKYQQDPRRYDYWGHGTQVTVSS endpoint_name="polyreactivity (PSR sort gate)" experimental_value="high polyreactivity"
sequence_chain=QVQLVESGGGLVQAGGSLRLSCAASGSIFKSNGMGWNRQAPGKERELVAAITGSGGTTYYADSVKGRFTISRDYAKNTVYLQMNSLKPEDTAVYYCAAVNYYWGQGTQVTVSS endpoint_name="polyreactivity (PSR sort gate)" experimental_value="low polyreactivity"
sequence_chain=QVQLVESGGGLDQAGGSLRLSCAASGSIFVRNAMGWYRQAPGKERELVASISRRGGSTYYADSVKGRFTISRDNAKNTVYLQMNSLKPEDTAVYYCAAVVRRAPEFDYWGQGTQVTVSS endpoint_name="polyreactivity (PSR sort gate)" experimental_value="high polyreactivity"

* * *

Assay: yeast display, Sf9 membrane polyspecificity reagent, FACS + sequencing; frameworks hold sequencing errors
Endpoint name: polyreactivity (PSR sort gate)

sequence_chain=QVQLVESGGGLVQAGGSLRLSCAASGLTLNYYAMGWYRQAPGKERELVASISRSGGRTYYADSVKGRFTISRVNAKNTVYLQMNSLKPDDSAVYYCNADWYRGRYDYWGQGTQVTVSS endpoint_name="polyreactivity (PSR sort gate)" experimental_value="high polyreactivity"
sequence_chain=QFQLVESGGGLVQAGGSLRLSCAASGSIFDGNAMGWYRQAPGKERELVAAISRRGGSTYYADSVKGRFTISRYNAKNTVYLQMNSLKPEDTAVYYCNAYLSYFDGNYWGQGTQVTVSS endpoint_name="polyreactivity (PSR sort gate)" experimental_value="high polyreactivity"
sequence_chain=QVQLVESGGGLVQAGGSLRLSCAASGSIFNPYAMGWYRQAPGKERELVAAISYTGGRTYYADSVKGRFTISRDNAKNTVYLQMNSLKPEDTAVYYCAAGHYVYWYRYQLGRYNYWGQGTQVTVSS endpoint_name="polyreactivity (PSR sort gate)" experimental_value="high polyreactivity"
sequence_chain=QVQLVESGGGLVQAGGSLRLSVAASGRTFYSYSMGWYRQAHGKERELVASITNGETKNYADSVKGRFTISRDNAKNTVYLQMNSLKPEDTAVYYCAADDSSRTTYDYWGQGTQVTVSS endpoint_name="polyreactivity (PSR sort gate)" experimental_value="low polyreactivity"
sequence_chain=QVQLVESGGGLVQAGGSLRLSCAASGSIFIRNAMGWYRQAPGKERELVAAISTIGGRTYYADSVKGRFTISRDNAKNTVYLQMNSLNPEDTAVYYCAAEQGTPSTNWYDYWGQGTQVTVSS endpoint_name="polyreactivity (PSR sort gate)" experimental_value="low polyreactivity"
sequence_chain=QVQLVESGGGLVQAGGSLRLSCAASGSIFPVYAMGWYRQAPGKERELVATIRSGGARTYYADSVKGRFTISRDNAKNTVYLQMNSLKPEDTAVYYCATRWPHYGGYYYWGQGTQVTVSS endpoint_name="polyreactivity (PSR sort gate)" experimental_value="high polyreactivity"
sequence_chain=QVQLVESGGGLVQAGGSLRLSCAASGRTFGKYAMGWYTQAPGKEREFVAAISWSGATTRYADSVKGRFTISRDNAKNTVYLQMNSLKPEDTAVYYCAATYYYVYGYRGDYWGQGTQVTVSS endpoint_name="polyreactivity (PSR sort gate)" experimental_value="high polyreactivity"
sequence_chain=QVQLVESGGGLVQAGGSLRLSCAASGSIFDYYAMGWYRQAPGKERELVAAISSSGDTTYYADSVKGRFTISRDTAKNTVYLQMNSLKPEDTAVYYCAARVRGYRHASNYYWGQGTQVTVSS endpoint_name="polyreactivity (PSR sort gate)" experimental_value="high polyreactivity"
sequence_chain=QVQLVEKGGGLVQAGGSLRLSCAASGRTFRSNAMGWYRQAPGKERELVAAIRSRGGSTYYADSVKGRFTISRDNAKNTVYLQMNSLKPEDTAVYYCAAKHGSTSHDSWGQGTQVTVSS endpoint_name="polyreactivity (PSR sort gate)" experimental_value="high polyreactivity"
sequence_chain=QVQLVESGGGLVQAGGSLRLSCAASGFTFPGNTMGWYRQAPGKERELVAVISRSGGRSYYADSVKGRFTISRDNAKNTVYLQMNSLKPEDTAVYYCAADTSVRFDYWGQGTQVTVSS endpoint_name="polyreactivity (PSR sort gate)" experimental_value="high polyreactivity"
sequence_chain=QVQLVESGGGLVQAGGSLRLSCAASGLTFGDYAMGWYRQAPGKERELVAAITKSGGRTYYADSVKGRFTISRDNAKNTVYLQMNSLKPEDTEVYYCATRKGRRYGYNYWGQGTQVTVSS endpoint_name="polyreactivity (PSR sort gate)" experimental_value="high polyreactivity"
sequence_chain=QVQLVESGGGLVQAGGSLRLSCAASGFTFYRNAMGWYRQAPGKERELVAAITRAGSTYYADSVKGRFTISRDNAKNTVYLQMNSLKPEDTAVYYCFDMSNRYAVRYDYWGQGTQVSVSS endpoint_name="polyreactivity (PSR sort gate)" experimental_value="high polyreactivity"
sequence_chain=QVQLVESGGGLVQAGGSLRLSRAASGFIFVQNAMVWYRQAPGKERELVASLTSGGTTNYADSVKGRFTISRDNAKNTVYLQMNSLKPEDTAVYYCNARLERTPSLYLYGSWGQGTQVTESS endpoint_name="polyreactivity (PSR sort gate)" experimental_value="low polyreactivity"
sequence_chain=QVQLVESGGGLVQAGGSLRLSCAASGFTFYSNAMGWYRQAPGKERELVAAISYSGGSTYYADSVKGRFTISRDNAKNTVYLQMNSLKPEDTAVYYCAAGGLQQGDYWGQGTQVTVSS endpoint_name="polyreactivity (PSR sort gate)" experimental_value="low polyreactivity"
sequence_chain=QVQLVESGGGLVQAGGSLRLSCAASGRTFAPYAMGWYRQAPGKERELVAAITSGGSTYYADSVKGRFTISRDNAKNTVYLQMNSLKPEDTAVYYCAAKFVGTTVSEYGYWGQGTEVTVSS endpoint_name="polyreactivity (PSR sort gate)" experimental_value="low polyreactivity"
sequence_chain=QVQLVESGGGLVQAGGSLRLSCAASGFIFVFNAMGWYRQAPGKERELVAAITWSAGSTYYADSVKGRFTISRDTAKKTVDLQKNSLKPEDTAVYYCAADNWPWPEKPDKSILYDYWGQGTQVTVSS endpoint_name="polyreactivity (PSR sort gate)" experimental_value="low polyreactivity"
sequence_chain=QVQLVESGGGLVQAGGSLRLSCAASGITIVNYVMGWYRQPPGKERELVAAISIGGGTYYADSVKGRFTISRDNAKNTVYLQMNSLKPEDTAVYYWNASYGGLSFYIGVYDTGYDYWGQGTQVTVSS endpoint_name="polyreactivity (PSR sort gate)" experimental_value="low polyreactivity"
sequence_chain=QVQLVESGGGLVQAGGSLRLSCAASGFIFSRYAMGWYRQAPGKERELVAAISWSGASTYYADSVKGRFTISRDNAKNTVYLQMNSLKPEYTAVYYCNAVVTYHYSVSSVGSRYDYWGQGTQVTVSS endpoint_name="polyreactivity (PSR sort gate)" experimental_value="high polyreactivity"
sequence_chain=QVQLVESGGGLVQAGGSLRLSCAASGRIFQYNAMGWYRQAPGKERELVAAISNSDSTNYADSVKGRFTISRDNAKNTDYLQLNRVKPEDTAVYYCARRYYFYRWVIPDYDYWGQGTQVTVSS endpoint_name="polyreactivity (PSR sort gate)" experimental_value="low polyreactivity"
sequence_chain=QVQLVESGGGLFQAGGSLRLSCAASGSTFRANAMGWYRQAPGKETELVAAISQSGGITYYADSVKVRFTISRDNAKNTVYLQMKSLKPEDTAVYYCAALGYRIIRGRFYSWGQGTQVTVSS endpoint_name="polyreactivity (PSR sort gate)" experimental_value="high polyreactivity"
sequence_chain=QVQLVESGGGLVQAGGSLRLSCAASGSIFVGYAMGWYRQAPGKERELVAAISASGSSTYYADSVKGRFTISRDNAKNTVYLQMNSLKPEDTAVYYCATKRVASSWTYVYWGQGSQVTVSS endpoint_name="polyreactivity (PSR sort gate)" experimental_value="high polyreactivity"
